assay: yeast display, Sf9 membrane polyspecificity reagent, FACS + sequencing; frameworks hold sequencing errors
property: polyreactivity (PSR sort gate)

# record sequence, polyreactivity (PSR sort gate)
rows = [
    ("QVQLVESGGGLVQAGGSLRLSCAASGITFYRNAMGSYRQAPGKERELVADIDVGDGTYYADSVKGRFTISRDNCKNTVYLQMNSLKPEDTAVYYCNKTFLFLEYDSWGQGTQVTVSS", "low polyreactivity"),
    ("QVQLVESGGGLVQAGGSLRLSCAASGRTFPYNDMGWYRQAPGKERQLVAGISLSGGSTFYADSVKGRFTISRDNAKKTVYLQRNSLKAEDTAVYYCNAPGGRYVWTDDYDYWGQGTQVTVSS", "high polyreactivity"),
    ("QVQLVESGGGLVQAGGSLRLICAASGRISKRYTMGWYRQAPGKERELVAAINSSTSKSYADSVKGRFTISRDNAKNTVYLQMNSLKPEDTAVYYCNARYNYSYDYNYWGQGTQVTVSS", "low polyreactivity"),
    ("QVQLVESGGGLVQAGGSLRLSCAASGFTFSRYAMVWYRKAPGKDRELVAVISSSGSRTYYADSVKGRFSISRHNAKNTVHLQMNSLQPEDTAVYYGAAKSYTVTAYEYWGQGTQVTVSS", "high polyreactivity"),
]

Turning now to a further sequence:
Respond only with polyreactivity (PSR sort gate) recorded for "QVQLVESGGGLVQAGGSLRLSCAASGSTFFWYAMGWYRQAPGKEREFVAAITYRGGSTHYADSVKGRFTISRDNAKNTVYLQMNSLKPEDTAVYYCAARSLRYPYDYWGQGTQVTVSS"
low polyreactivity
